- Test system: Non-small cell lung cancer cell line
- assay text: Compound was tested for the inhibition of non- small cell lung cancer
- Assay type: functional, cell-based
- condition summary: Homo sapiens
measurement name: IC50 (µM)
Numbers only, in µM.

// query Dear colleague, I am looking for the recorded IC50 of the following molecule: "Nc1ccn([C@@H]2O[C@H](CO)[C@@H](O)[C@@H]2O)c(=O)n1"
// result 34

Sourced from ChEMBL document CHEMBL1123247
